- System: Huh-7 cells, genotype 1b HCV replicon
- experiment: Inhibition of HCV replication in cell culture, genotype 1b replicon
- Assay type: cell-based, hepatitis C virus
- measurementConditions: Hepatitis C virus, Huh-7, 24 h, Huh-7, genotype 1b replicon; intracellular HCV RNA 24 h after 3 daily doses; read-out: EC50
pEC50: −log10 of the molar value.

{"compound": "Cc1ccc(NC(=O)[C@@H](CCCCN)NC(=O)Nc2ccc(OCc3ccccc3)cc2)cc1", "pEC50": "5.70 to 6.30"}
{"compound": "CC1CCC(NC(=O)[C@H](CNC(=O)CN)NC(=O)Nc2ccc(OCc3ccccc3)cc2)CC1 (stereo partly drawn)", "pEC50": "< 5.70"}
{"compound": "NCCCC[C@@H](NC(=O)Nc1ccc2c(c1)Cc1ccccc1-2)C(=O)Nc1ccc(C2CCCCC2)cc1", "pEC50": "> 6.30"}

====

Reported values: IC50 for HCV RdRp (NS5B) (UniProt P26663), one per item.
metric: IC50

{"structureNotation": "NCCCC[C@H](NC(=O)OCC1c2ccccc2-c2ccccc21)C(=O)Nc1ccc2c(c1)CCC2", "metric": "IC50", "readoutValue": "10 to 50 µM"}
{"structureNotation": "Cc1cc2cc(NC(=O)[C@H](CCCCNC(=O)CN)NC(=O)Nc3ccc(OCc4ccccc4)cc3)ccc2[nH]1", "metric": "IC50", "readoutValue": "< 10 µM"}
{"structureNotation": "NCCCC[C@H](NC(=O)Cn1cnc2c(NC(=O)c3ccccc3)ncnc21)C(=O)N(Cc1ccccc1)C1CCCCC1", "metric": "IC50", "readoutValue": "> 50 µM"}

====

- systemUnderTest: HCV RdRp (NS5B)
pIC50: −log10 of the molar value.

{"molecule": "Cc1ccc(NC(=O)C(CCCCNC(=O)CN)NC(=O)OCC2c3ccccc3-c3ccccc32)cc1 (stereo not drawn)", "pIC50": "> 5.00"}
{"molecule": "Cc1cc2cc(NC(=O)[C@H](CCCCN)NC(=O)Nc3ccc(-c4ccccc4)cc3)ccc2[nH]1", "pIC50": "> 5.00"}
{"molecule": "O=C(N[C@@H](Cc1ccccc1)C(=O)Nc1ccc(CN(C(=O)c2ccco2)C2CCCCC2)cc1)OCC1c2ccccc2-c2ccccc21", "pIC50": "< 4.30"}
{"molecule": "Cc1ccc(NC(=O)C(CCCCN)NC(=O)Cc2cccc3ccccc23)cc1 (stereo not drawn)", "pIC50": "< 4.30"}
{"molecule": "CC(=O)c1cccc(NC(=O)[C@H](CCCCN)NC(=O)OCC2c3ccccc3-c3ccccc32)c1", "pIC50": "< 4.30"}
{"molecule": "NCCCC[C@H](NC(=O)OCC1c2ccccc2-c2ccccc21)C(=O)Nc1cccc(C(F)(F)F)c1", "pIC50": "< 4.30"}
{"molecule": "Cc1ccc(NC(=O)[C@H](CCCCN)NC(=O)Nc2ccc(OCc3ccccc3)cc2)cc1C", "pIC50": "4.30 to 5.00"}
{"molecule": "Cc1ccc(NC(=O)C(CCCCN)NC(=O)CC2c3ccccc3-c3ccccc32)cc1 (stereo not drawn)", "pIC50": "< 4.30"}
{"molecule": "Cc1ccc(NC(=O)C(CCCNC(=N)N(C)C)NC(=O)OCC2c3ccccc3-c3ccccc32)cc1 (stereo not drawn)", "pIC50": "< 4.30"}
{"molecule": "NCCCCC(NC(=O)OCC1c2ccccc2-c2ccccc21)C(=O)NC1CCCCC1 (stereo in doubt)", "pIC50": "4.30 to 5.00"}
{"molecule": "CN1CCN(C(=O)[C@H](CCCCN)NC(=O)Nc2ccc(OCc3ccccc3)cc2)CC1", "pIC50": "< 4.30"}
{"molecule": "CC(C)(NC(=O)c1ccc(C(=O)O)cc1)C(=O)Nc1ccc(CN(C(=O)c2ccco2)C2CCCCC2)cc1", "pIC50": "< 4.30"}
{"molecule": "Cc1ccc(NC(=O)[C@H](CCCCN)NC(=O)Nc2ccc(OCc3ccc([N+](=O)[O-])cc3)cc2)cc1", "pIC50": "4.30 to 5.00"}
{"molecule": "Cc1ccc(NC(=O)C(NC(=O)OCC2c3ccccc3-c3ccccc32)C(C)O)cc1 (stereo not drawn) [Compound 377]", "pIC50": "< 4.30"}
{"molecule": "Cc1ccc(NC(=O)C(Cc2ccc(CN)cc2)NC(=O)Nc2ccc(OCc3ccccc3)cc2)cc1 (stereo not drawn)", "pIC50": "> 5.00"}
